B1: SPSB4 (parent)
chain: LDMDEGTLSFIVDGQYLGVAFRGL

- Variants of: B1
- protocolDescription: protein stability index of a GFP-peptide fusion (GPS, HEK-293T) (PSI 1-6); higher = more stable;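 note: lentivirally expressed fusions sorted by FACS into six bins by GFP to DsRed ratio, PSI derived from sequencing read proportions per bin multiplied by bin number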
- conditions: c terminus: a fixed tail appended
measuredMetric: protein stability index
Enter a number only.

Can you share its protein stability index? I mean this variant: LDMDEGKLSFIVDGQYLGVAFRGL [T7K]
2.03

Now consider LDMDEGTLSFLVDGQYLGVAFRGL [I11L] and answer again.
3.07

Now consider LDMDEGTLSFHVDGQYLGVAFRGL [I11H] and answer again.
3.77

Now consider LDMDEGTLSFIVNGQYLGVAFRGL [D13N] and answer again.
2.39

Now consider LQMDEGTLSFIVDGQYLGVAFRGL [D2Q] and answer again.
1.65

Now consider LDMDEGTLSFIVDLQYLGVAFRGL [G14L] and answer again.
2.11

Now consider LDMDEGTLSFIVDGQYYGVAFRGL [L17Y] and answer again.
2.55

Now consider LDMDEGTLSFVVDGQYLGVAFRGL [I11V] and answer again.
1.47

Now consider LDMDEGTNSFIVDGQYLGVAFRGL [L8N] and answer again.
1.86

Now consider LDMDEGTLSSIVDGQYLGVAFRGL [F10S] and answer again.
2.13

Now consider LDMDEGTLSNIVDGQYLGVAFRGL [F10N] and answer again.
2.27
